Hey, just so you know, these numbers are from patent US20070077617.

target: fusion protein PRR
Sequence (chain, as listed by the source): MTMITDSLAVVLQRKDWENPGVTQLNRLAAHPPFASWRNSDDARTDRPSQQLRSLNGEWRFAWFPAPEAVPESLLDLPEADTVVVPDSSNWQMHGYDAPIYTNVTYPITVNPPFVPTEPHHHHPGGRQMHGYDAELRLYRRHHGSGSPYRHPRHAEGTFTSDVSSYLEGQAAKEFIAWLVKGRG
measuredAttribute: relative cleavage efficiency (%)
Lab book: enter the figure in %, no units written.

q: Entry OmpT protease variant OmpT D97E (protein) STETLSFTPDNINADISLGTLSGKTKERVYLAEEGGRKVSQLDWKFNNAAIIKGAINWDLMPQISIGAAGWTTLGSRGGNMVDQDWMDSSNPGTWTEESRHPDTQLNYANEFDLNIKGWLLNEPNYRLGLMAGYQESRYSFTARGGSYIYSSEEGFRDDIGSFPNGERAIGYKQRFKMPYIGLTGSYRYEDFELGGTFKYSGWVESSDNDEHYDPGKRITYRSKVKDQNYYSVAVNAGYYVTPNAKVYVEGAWNRVTNKKGNTSLYDHNNNTSDYSKNGAGIENYNFITTAGLKYTF needs its relative cleavage efficiency filled in; supply it.
a: 49
